Target: human CCR2 (Homo sapiens, UniProt P41597)
Construct: expressed in transfected cells; host or cells: Ba/F3 cells (membrane preparation)
Sequence (P41597 whole entry): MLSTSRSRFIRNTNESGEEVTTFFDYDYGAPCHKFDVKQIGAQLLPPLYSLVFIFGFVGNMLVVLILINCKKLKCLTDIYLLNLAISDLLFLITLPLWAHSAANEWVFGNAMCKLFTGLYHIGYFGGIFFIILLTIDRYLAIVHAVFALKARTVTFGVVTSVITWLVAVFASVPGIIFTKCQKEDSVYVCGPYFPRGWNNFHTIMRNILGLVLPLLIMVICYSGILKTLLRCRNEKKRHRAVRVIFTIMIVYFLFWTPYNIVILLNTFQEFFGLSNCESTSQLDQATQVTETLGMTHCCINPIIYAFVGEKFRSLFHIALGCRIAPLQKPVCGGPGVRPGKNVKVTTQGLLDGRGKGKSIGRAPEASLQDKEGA
Assay: CCR2 Membrane Binding Assay (SPA radio-ligand binding, 125I-rhMCP-1)
Conditions: membranes from Ba/F3 cells transfected with human CCR2; 0.03 nM 125I-rhMCP-1; class symbols
# reported IC50; entries follow

compound: CC(C1CC1)N1C[C@@H]2[C@H](C1)[C@H]2C(=O)NCC(=O)Nc1cccc(C(F)(F)F)c1 (stereo partly shown)
reported endpoint: IC50
value observed: 201 to 700 nM
--
compound: O=C(N[C@@H]1CCN(c2nccc(C(F)(F)F)n2)C1)[C@H]1[C@@H]2CN([C@H]3CC[C@@H](c4ccccc4)CC3)C[C@@H]21
reported endpoint: IC50
value observed: 201 to 700 nM

Measured on human CCR2 (Homo sapiens, UniProt P41597), O=C(CNC(=O)[C@H]1[C@@H]2CN([C@H]3CC[C@@H](c4cc(Br)c(O)c(Br)c4)CC3)C[C@@H]21)Nc1cccc(C(F)(F)F)c1 has a documented IC50 of < 50 nM

# O=C(CNC(=O)[C@H]1[C@@H]2CN(C3CC(CO)C3)C[C@@H]21)Nc1cccc(C(F)(F)F)c1 (stereo partly shown) with human CCR2 (Homo sapiens, UniProt P41597): IC50 is 201 to 700 nM

Bench note, human CCR2 (Homo sapiens, UniProt P41597): O=C(CNC(=O)[C@H]1[C@@H]2CN([C@H]3CC[C@@H](c4ccc(=O)[nH]c4)CC3)C[C@@H]21)Nc1cccc(C(F)(F)F)c1 , IC50 reads < 50 nM

Summary: O=C(NCCc1cccc(C(F)(F)F)c1)C1[C@H]2CN(C3CCCC3)C[C@@H]12 (stereo partly shown) , human CCR2 (Homo sapiens, UniProt P41597), IC50 = 201 to 700 nM

For O=C(CNC(=O)[C@H]1[C@@H]2CN(C3CC(c4ccccc4)C3)C[C@@H]21)Nc1cccc(C(F)(F)F)c1 (stereo partly shown) on human CCR2 (Homo sapiens, UniProt P41597), measured IC50 was 51 to 200 nM
